# tested.system: T1, Rhesus CD137-Fc tagged protein (rhesus, UniProt H9Z8K9 24-186)
# T1 construct: extracellular domain; The Octet paragraph gives no catalogue number; also called rhCD137-Fc
# method: BLI (Octet RED384), CD137-Fc on Protein G sensor, 1:1 model
Quick reference for koff among some binders

[
  {
    "binder": "003BB172-E01-14 (VHH, Human VH single domain antibody, monovalent) VHH: EVQLVESGGGVVQPGRSLRLSCAASGFTFSNYGMHWVRQAPGKGLEWVAVISNDGNTKTYADSVKGRFTISRDNSKNTLYLQMNSLRAEDTAVYYCAQDETTTVTASYYFDYWGQGTLVTVSS",
    "koff / s⁻¹": 0.00159
  },
  {
    "binder": "003BB172-E01-4 (VHH, Human VH single domain antibody, monovalent) VHH: EVQLVESGGGLVQPGGSLRLSCAASGFTFSNYGMHWVRQAPGKGLEWVAVISNDGNTKTYADSVKGRFTISRDNSKNTLYLQMTSLRTEDTAVYYCAQDETTTVTASYYFDYWGQGTLVTVSS",
    "koff / s⁻¹": 0.00216
  },
  {
    "binder": "003BB172-E01-7 (VHH, Human VH single domain antibody, monovalent; also called CD137C) VHH: EVQLVESGGGLVQPGGSLRLSCAASGFTFSNYGMHWVRQAPGKGLEWVAVISNDGNTKTYADSVKGRFTISRDNSKNTLYLQMNSLRTEDTAVYYCAQDETTTVTASYYFDYWGQGTLVTVSS",
    "koff / s⁻¹": 0.00233
  },
  {
    "binder": "003BB172-E01-11 (VHH, Human VH single domain antibody, monovalent) VHH: EVQLVESGGGVVQPGRSLRLSCAASGFTFSNYGMHWVRQAPGKGLEWVAVISNDGNTKTYADSVKGRFTISRDNSKNTLYLQMNSLRTEDTAVYYCAQDETTTVTASYYFDYWGQGTLVTVSS",
    "koff / s⁻¹": 0.0024
  },
  {
    "binder": "003BB172-E01-5 (VHH, Human VH single domain antibody, monovalent) VHH: EVQLVESGGGLVQPGGSLRLSCAASGFTFSNYGMHWVRQAPGKRLEWVAVISNDGNTKTYADSVKGRFTISRDNSKNTLYLQMNSLRTEDTAVYYCAQDETTTVTASYYFDYWGQGTLVTVSS",
    "koff / s⁻¹": 0.00164
  },
  {
    "binder": "003BB172-E01-3 (VHH, Human VH single domain antibody, monovalent) VHH: EVQLVESGGGLVQPGGSLRLSCAASGFTFSNYGMHWVRQAPGKRLEWVAVISNDGNTKTYADSVKGRFTISRDNSKNMLYLQMNSLRTEDTAVYYCAQDETTTVTASYYFDYWGQGTLVTVSS",
    "koff / s⁻¹": 0.00157
  },
  {
    "binder": "003BB172-E01-8 (VHH, Human VH single domain antibody, monovalent) VHH: EVQLVESGGGVVQPGGSLRLSCAASGFTFSNYGMHWVRQAPGKGLEWVAVISNDGNTKTYADSVKGRFTISRDNSKNTLYLQMNSLRTEDTAVYYCAQDETTTVTASYYFDYWGQGTLVTVSS",
    "koff / s⁻¹": 0.00269
  },
  {
    "binder": "003BB172-E01-10 (VHH, Human VH single domain antibody, monovalent) VHH: EVQLVESGGGLVQPGRSLRLSCAASGFTFSNYGMHWVRQAPGKGLEWVAVISNDGNTKTYADSVKGRFTISRDNSKNTLYLQMNSLRTEDTAVYYCAQDETTTVTASYYFDYWGQGTLVTVSS",
    "koff / s⁻¹": 0.00249
  },
  {
    "binder": "003BB172-E01-9 (VHH, Human VH single domain antibody, monovalent) VHH: EVQLVESGGGLVQPGGSLRLSCAASGFTFSNYGMHWVRQAPGKGLEWVAVISNDGNTKTYADSVKGRFTISRDNSKNTLYLQMNSLRAEDTAVYYCAQDETTTVTASYYFDYWGQGTLVTVSS",
    "koff / s⁻¹": 0.00235
  },
  {
    "binder": "003BB172-E01-1 (VHH, Human VH single domain antibody, monovalent) VHH: EVQLVESGGGLVQPGGSLRLSCAASGFTFSNYGMHWVRQAPGKGLEWVAVISNDGNTKTYADSVKGRFTISRDNSKNMLYLQMTSLRTEDTAVYYCAQDETTTVTASYYFDYWGQGTLVTVSS",
    "koff / s⁻¹": 0.00267
  },
  {
    "binder": "003BB172-E01 (VHH, also called 003BB1172-E01) VHH: EVQLVESGGGLVQPGGSLRLSCAASGFTFSNYGMHWVRQAPGKRLEWVAVISNDGNTKTYADSVKGRFTISRDNSKNMLYLQMTSLRTEDTAVYYCAQDETTTVTASYYFDYWGQGTLVTVSS",
    "koff / s⁻¹": 0.00131
  }
]
